Biological target: T1, EsCas13d, nuclease-dead (Eubacterium siraeum, UniProt B0MS50, R295A;H300A;R849A;H854A)
T1 sequence: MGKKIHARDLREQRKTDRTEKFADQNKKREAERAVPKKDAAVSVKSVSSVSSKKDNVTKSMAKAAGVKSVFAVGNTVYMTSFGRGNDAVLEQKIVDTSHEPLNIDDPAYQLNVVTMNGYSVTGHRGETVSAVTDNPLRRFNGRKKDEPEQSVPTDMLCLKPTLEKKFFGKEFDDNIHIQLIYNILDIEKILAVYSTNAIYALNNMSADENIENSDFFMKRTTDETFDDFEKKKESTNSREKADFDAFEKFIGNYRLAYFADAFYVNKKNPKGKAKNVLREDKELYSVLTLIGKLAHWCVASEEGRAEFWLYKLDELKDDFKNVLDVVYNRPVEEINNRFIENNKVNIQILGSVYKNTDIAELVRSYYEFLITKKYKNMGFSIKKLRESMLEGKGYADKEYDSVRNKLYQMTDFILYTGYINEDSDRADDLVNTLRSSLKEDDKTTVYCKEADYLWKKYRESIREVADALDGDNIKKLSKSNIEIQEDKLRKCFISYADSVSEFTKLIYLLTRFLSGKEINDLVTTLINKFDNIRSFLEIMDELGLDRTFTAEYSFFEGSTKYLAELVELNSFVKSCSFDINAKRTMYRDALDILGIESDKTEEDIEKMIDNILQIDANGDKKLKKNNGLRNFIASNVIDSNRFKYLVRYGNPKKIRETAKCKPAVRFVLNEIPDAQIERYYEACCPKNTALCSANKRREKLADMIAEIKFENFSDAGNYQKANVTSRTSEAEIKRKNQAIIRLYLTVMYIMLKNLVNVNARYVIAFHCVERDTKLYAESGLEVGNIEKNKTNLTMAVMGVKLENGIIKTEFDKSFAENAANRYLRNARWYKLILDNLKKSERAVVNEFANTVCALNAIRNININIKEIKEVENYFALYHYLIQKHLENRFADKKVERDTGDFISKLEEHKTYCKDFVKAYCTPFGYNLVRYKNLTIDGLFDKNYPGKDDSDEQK
Experiment: crRNA (strand 1, pre-loaded); Mg2+; 40 mM Tris-HCl pH 7.5, 150 mM NaCl, 6 mM MgCl2, 1 mM DTT, 0.1% Tween-20, 0.2 mg/ml BSA; 25 C; 10 min per concentration, then washed
Details: tags: His6-TwinStrep-SUMO cleaved; N-terminal SNAP kept (SNAP-Surface 488); label: 3' end held by stalled T7 RNA polymerase
# key: entry, value: Kd

# Binder, Unit Abbrev, Kd
data = [
    ("target 1 MT 5'PFS GUA 3'PFS GUA (mixed) RNA 1: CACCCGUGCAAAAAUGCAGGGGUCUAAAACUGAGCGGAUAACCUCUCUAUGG RNA 2: GGGAAUGGAUCCACAUCUACGAAUUCGUACCAUAGAGAGGUUAUCCGCUCAGUAAGAUCGGAAGAGCACACGU", "nM", 12.1),
    ("target 3 insU 3' of 4,insC 3' of 4 (mixed) RNA 1: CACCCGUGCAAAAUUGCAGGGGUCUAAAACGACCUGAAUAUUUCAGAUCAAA RNA 2: GGGAAUGGAUCCACAUCUACGAAUUCGUUUUUGAUCUGAAAUAUUCAGUCGUCUGCAGAUCGGAAGAGCACACGU", "nM", 19.5),
    ("target 1 G17A,A18C (mixed) RNA 1: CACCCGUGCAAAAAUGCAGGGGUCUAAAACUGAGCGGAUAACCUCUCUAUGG RNA 2: GGGAAUGGAUCCACAUCUACGAAUUCGUACCAUCAAGAGGUUAUCCGCUCACCGAGAUCGGAAGAGCACACGU", "nM", 67),
    ("target 3 insC 3' of 5,insC 3' of 4 (mixed) RNA 1: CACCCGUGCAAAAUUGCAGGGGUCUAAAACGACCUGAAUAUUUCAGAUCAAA RNA 2: GGGAAUGGAUCCACAUCUACGAAUUCGUUUUUGAUCUGAAAUAUUCACGCGUCUGCAGAUCGGAAGAGCACACGU", "nM", 11.6),
]

Sourced from paper PMC10786891
